pIC50: −log10 of the molar value.
Listed here: molecules with reported pIC50 for lactoperoxidase (Bos taurus).

- MOLECULE: "O=c1cc(-c2ccccc2)oc2cc(O)cc(O)c12 [chrysin]"
  pIC50: 6.64
- MOLECULE: "O=C(O)c1c(O)cc(O)cc1O [2,4,6-trihydroxybenzoic acid]"
  pIC50: 4.44
